# Test system: Staphylococcus aureus
# assaySummary: In vitro minimum inhibitory concentration against Staphylococcus aureus 209p
# Assay type: functional
quantityMeasured: MIC

C[C@@H](O)[C@H]1C(=O)N2C(C(=O)[O-])=C(Sc3nc(-c4ccc[n+](CC(N)=O)c4)cs3)[C@H](C)[C@H]12 = < 0.006 µg/mL

Notebook: C[C@@H](O)[C@H]1C(=O)N2C(C(=O)[O-])=C(Sc3nc(-c4cc[n+](CC(N)=O)cc4)cs3)[C@H](C)[C@H]12 , MIC read as < 0.006 µg/mL

Field MIC (entry Cc1nc(SC2=C(C(=O)O)N3C(=O)[C@H]([C@@H](C)O)[C@H]3[C@H]2C)sc1C ) reads 0.025 µg/mL

Noted for C[C@@H](O)[C@H]1C(=O)N2C(C(=O)[O-])=C(Sc3nc(-c4cc[n+](C)cc4)cs3)[C@H](C)[C@H]12 : its MIC reads < 0.006 µg/mL

Reported MIC for C[C@@H](O)[C@H]1C(=O)N2C(C(=O)[O-])=C(Sc3nc(-c4ccc[n+](C)c4)cs3)[C@H](C)[C@H]12 was < 0.013 µg/mL

# compound C[C@@H](O)[C@H]1C(=O)N2C(C(=O)O)=C(Sc3nccs3)[C@H](C)[C@H]12 ; its MIC = 0.025 µg/mL

Quick note, MIC for C[C@@H](O)[C@H]1C(=O)N2C(C(=O)O)=C(Sc3nc(-c4ccc(Cl)cc4)cs3)[C@H](C)[C@H]12 landed at < 0.013 µg/mL

* * *

Listed next: entries and their corresponding MIC.
# Test system: Staphylococcus aureus
# assaySummary: In vitro minimum inhibitory concentration against Staphylococcus aureus 209p
# Format: functional

Illustrative cases are given below, each with its answer.
C[C@@H](O)[C@H]1C(=O)N2C(C(=O)O)=C(Sc3nc(-c4ccncc4)cs3)[C@H](C)[C@H]12 = < 0.013 µg/mL
Cc1ccc(-c2csc(SC3=C(C(=O)O)N4C(=O)[C@H]([C@@H](C)O)[C@H]4[C@H]3C)n2)cc1 = < 0.006 µg/mL

Read the next record carefully.
MIC reported for this molecule C[C@@H](O)[C@H]1C(=O)N2C(C(=O)O)=C(Sc3nc(-c4ccc(N)cc4)cs3)[C@H](C)[C@H]12 : < 0.013 µg/mL

* * *

# measurementTarget: Dipeptidase 1 (Sus scrofa) (UniProt P22412)
# Sequence (whole entry): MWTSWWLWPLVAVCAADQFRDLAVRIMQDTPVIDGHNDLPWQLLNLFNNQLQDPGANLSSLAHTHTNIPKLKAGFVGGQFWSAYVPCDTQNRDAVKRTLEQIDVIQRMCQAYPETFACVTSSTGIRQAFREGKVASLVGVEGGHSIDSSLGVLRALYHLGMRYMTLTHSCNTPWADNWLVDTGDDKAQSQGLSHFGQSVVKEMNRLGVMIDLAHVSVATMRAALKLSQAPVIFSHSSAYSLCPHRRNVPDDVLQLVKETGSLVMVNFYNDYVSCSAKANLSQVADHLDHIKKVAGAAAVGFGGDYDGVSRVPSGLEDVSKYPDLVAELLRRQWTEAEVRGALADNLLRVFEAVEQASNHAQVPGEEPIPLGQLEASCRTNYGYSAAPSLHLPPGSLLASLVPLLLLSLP
# assaySummary: Time of enzyme-catalyzed hydrolysis from 500 uM to 400 uM in the presence of purified renal DHP-1 of swine
quantityMeasured: TIME (h)
Report only the number, with the unit h understood.

Please review the entries below; each comes with its answer.
C[C@@H](O)[C@H]1C(=O)N2C(C(=O)O)=C(Sc3nc(-c4ccc(Cl)cc4)cs3)[C@H](C)[C@H]12 = 0.165
CCCc1csc(SC2=C(C(=O)O)N3C(=O)[C@H]([C@@H](C)O)[C@H]3[C@H]2C)n1 = 0.2
C[C@@H](O)[C@H]1C(=O)N2C(C(=O)O)=C(Sc3nc(-c4ccc5ccncc5c4)cs3)[C@H](C)[C@H]12 = 0.162
C[C@@H](O)[C@H]1C(=O)N2C(C(=O)O)=C(Sc3nc(-c4ccncc4)cs3)[C@H](C)[C@H]12 = 0.267
C[C@@H](O)[C@H]1C(=O)N2C(C(=O)O)=C(SCCNC=N)C[C@H]12 [IMIPENEM ANHYDROUS] = 0.2

// Cc1nc(SC2=C(C(=O)O)N3C(=O)[C@H]([C@@H](C)O)[C@H]3[C@H]2C)sc1C : TIME value = 0.383

Record C[C@@H](O)[C@H]1C(=O)N2C(C(=O)[O-])=C(Sc3nc(-c4cc[n+](CC(N)=O)cc4)cs3)[C@H](C)[C@H]12 . Reported TIME: 0.35

response.value for Cc1ccc(-c2csc(SC3=C(C(=O)O)N4C(=O)[C@H]([C@@H](C)O)[C@H]4[C@H]3C)n2)cc1 (field: TIME) = 0.153

Notebook: C[C@@H](O)[C@H]1C(=O)N2C(C(=O)[O-])=C(Sc3nc(-c4ccc[n+](C)c4)cs3)[C@H](C)[C@H]12 , TIME read as 0.467

Sample C[C@@H](O)[C@H]1C(=O)N2C(C(=O)[O-])=C(Sc3nc(-c4ccc[n+](CC(N)=O)c4)cs3)[C@H](C)[C@H]12 ; TIME observed: 0.283

Noted for C[C@@H](O)[C@H]1C(=O)N2C(C(=O)O)=C(Sc3nc(-c4cccnc4)cs3)[C@H](C)[C@H]12 : its TIME reads 0.0533

// TIME value for C[C@@H](O)[C@H]1C(=O)N2C(C(=O)O)=C(Sc3nc(-c4ccc(N)cc4)cs3)[C@H](C)[C@H]12 : 0.3

Looking up Cc1csc(SC2=C(C(=O)O)N3C(=O)[C@H]([C@@H](C)O)[C@H]3[C@H]2C)n1 , I found its TIME recorded as 0.217

Sure, the documented TIME for C[C@@H](O)[C@H]1C(=O)N2C(C(=O)O)=C(Sc3nccs3)[C@H](C)[C@H]12 is 0.25

Per the record, C[C@@H](O)[C@H]1C(=O)N2C(C(=O)O)=C(Sc3ncc(-c4ccccc4)s3)[C@H](C)[C@H]12 has TIME of 0.25
